# credit: PubChem BioAssay AID1963842

System: 677734-321-R-J1-PDC complex spheroid viability
Assay: Anticancer human tumor 677734-321-R-J1-PDC patient-derived soft tissue sarcoma cell line growth inhibition [POLQ]; active = viability on the fitted dose curve at most 10% of control; inactive = the rest
Details: second compound 10 µM; first compound 0.316 µM
Give your call using only these classes: active, inactive

Identify the outcome logged in this assay for the compound shown: O=C(Nc1ccc(O)c(NS(=O)(=O)c2ccc(F)cc2)c1)c1ccc(-c2ccccc2)cc1 + COC1C(OC(N)=O)C(O)C(Oc2ccc3c(O)c(NC(=O)c4ccc(O)c(CC=C(C)C)c4)c(=O)oc3c2C)OC1(C)C
inactive

Identify the outcome logged in this assay for the compound shown: COc1cc(C2c3cc4c(cc3C(OC3OC5COC(C)OC5C(O)C3O)C3COC(=O)C23)OCO4)cc(OC)c1O (stereo unspecified) + Nc1ccc(C#CCN(C(=O)Cc2ncc(C(F)(F)F)cc2C(F)(F)F)c2ccc(F)cc2)nn1
inactive

Identify the outcome logged in this assay for the compound shown: C=CC(=O)N1CCN(c2nc(=O)n(-c3c(C)ccnc3C(C)C)c3nc(-c4c(O)cccc4F)c(F)cc23)C(C)C1 (stereo unspecified) + COC1C(OC(N)=O)C(O)C(Oc2ccc3c(O)c(NC(=O)c4ccc(O)c(CC=C(C)C)c4)c(=O)oc3c2C)OC1(C)C
inactive

Identify the outcome logged in this assay for the compound shown: CCCS(=O)(=O)Nc1ccc(F)c(C(=O)c2c[nH]c3ncc(-c4ccc(Cl)cc4)cc23)c1F + COC1C(OC(N)=O)C(O)C(Oc2ccc3c(O)c(NC(=O)c4ccc(O)c(CC=C(C)C)c4)c(=O)oc3c2C)OC1(C)C
inactive

Identify the outcome logged in this assay for the compound shown: COc1cc2cc(C(=O)CCC(=O)O)sc2cc1OC + COC1C(OC(N)=O)C(O)C(Oc2ccc3c(O)c(NC(=O)c4ccc(O)c(CC=C(C)C)c4)c(=O)oc3c2C)OC1(C)C
inactive

Identify the outcome logged in this assay for the compound shown: CC1COCCN1c1cc(-c2ccnn2C)c2ccnc(-c3ccn[nH]3)c2n1 (stereo unspecified) + COC1C(OC(N)=O)C(O)C(Oc2ccc3c(O)c(NC(=O)c4ccc(O)c(CC=C(C)C)c4)c(=O)oc3c2C)OC1(C)C
inactive

Identify the outcome logged in this assay for the compound shown: COc1cccc(OCCCN)c1-c1cc(Nc2cnc(C#N)cn2)n[nH]1 + COC1C(OC(N)=O)C(O)C(Oc2ccc3c(O)c(NC(=O)c4ccc(O)c(CC=C(C)C)c4)c(=O)oc3c2C)OC1(C)C
inactive

Identify the outcome logged in this assay for the compound shown: CNCc1ccc(-c2[nH]c3cc(F)cc4c3c2CCNC4=O)cc1 + Nc1ccc(C#CCN(C(=O)Cc2ncc(C(F)(F)F)cc2C(F)(F)F)c2ccc(F)cc2)nn1
inactive

Identify the outcome logged in this assay for the compound shown: COc1cc2cc(C(=O)CCC(=O)O)sc2cc1OC + Cc1cccc(N(C)C(=O)C2C(O)CCN2c2nc(C)cc(C(F)(F)F)c2C#N)c1
inactive

Identify the outcome logged in this assay for the compound shown: CC1COCCN1c1cc(C2(S(C)(=N)=O)CC2)nc(-c2ccnc3[nH]ccc23)n1 (stereo unspecified) + Cc1cccc(N(C)C(=O)C2C(O)CCN2c2nc(C)cc(C(F)(F)F)c2C#N)c1
inactive

Identify the outcome logged in this assay for the compound shown: CCc1cc2c(N3CCc4c(cc(Cn5ccnc5)cc4-c4cn(C)nc4C(F)(F)F)C3=O)ccnc2c(OC)n1 + Cc1cccc(N(C)C(=O)C2C(O)CCN2c2nc(C)cc(C(F)(F)F)c2C#N)c1
inactive

Identify the outcome logged in this assay for the compound shown: CC1COCCN1c1cc(C2(O)CC3CCC(C2)O3)c2cnn(-c3ccn[nH]3)c2n1 (stereo unspecified) + COC1C(OC(N)=O)C(O)C(Oc2ccc3c(O)c(NC(=O)c4ccc(O)c(CC=C(C)C)c4)c(=O)oc3c2C)OC1(C)C
inactive

Identify the outcome logged in this assay for the compound shown: COc1cccc(OCCCN)c1-c1cc(Nc2cnc(C#N)cn2)n[nH]1 + Cc1cccc(N(C)C(=O)C2C(O)CCN2c2nc(C)cc(C(F)(F)F)c2C#N)c1
active

Identify the outcome logged in this assay for the compound shown: COc1cccc2c1C(=O)c1c(O)c3c(c(O)c1C2=O)CC(O)(C(=O)CO)CC3OC1CC(N)C(O)C(C)O1 (stereo unspecified) + Nc1ccc(C#CCN(C(=O)Cc2ncc(C(F)(F)F)cc2C(F)(F)F)c2ccc(F)cc2)nn1
active

Identify the outcome logged in this assay for the compound shown: C#Cc1c(F)ccc2cc(O)cc(-c3ncc4c(N5CC6CCC(C5)N6)nc(OCC56CCCN5CC(F)C6)nc4c3F)c12 (stereo unspecified) + COC1C(OC(N)=O)C(O)C(Oc2ccc3c(O)c(NC(=O)c4ccc(O)c(CC=C(C)C)c4)c(=O)oc3c2C)OC1(C)C
inactive

Identify the outcome logged in this assay for the compound shown: CC1COCCN1c1cc(-c2ccnn2C)c2ccnc(-c3ccn[nH]3)c2n1 (stereo unspecified) + Cc1cccc(N(C)C(=O)C2C(O)CCN2c2nc(C)cc(C(F)(F)F)c2C#N)c1
inactive

---

Provide the recorded viability, T/C for the entries that follow.
Tested on: 677734-321-R-J1-PDC complex spheroid viability
Assay: Anticancer human tumor 677734-321-R-J1-PDC cell line growth inhibition [POLQ];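 also: spheroids exposed to compounds for one week; 100% = vehicle DMSO treated spheroids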
Conditions: second compound 10 µM; first compound 0.00316 µM; active compounds read low
Write the answer as a number in %, unit excluded.

Request the reported viability, T/C associated with Cn1ncnc1[C@H]1c2n[nH]c(=O)c3cc(F)cc(c23)N[C@@H]1c1ccc(F)cc1 + Cc1cccc(N(C)C(=O)C2C(O)CCN2c2nc(C)cc(C(F)(F)F)c2C#N)c1
101

Request the reported viability, T/C associated with CCc1c2c(nc3ccc(O)cc13)-c1cc3c(c(=O)n1C2)COC(=O)[C@]3(O)CC + COC1C(OC(N)=O)C(O)C(Oc2ccc3c(O)c(NC(=O)c4ccc(O)c(CC=C(C)C)c4)c(=O)oc3c2C)OC1(C)C
32

Request the reported viability, T/C associated with CC[C@@]1(O)C(=O)OCc2c1cc1n(c2=O)Cc2cc3c(CN(C)C)c(O)ccc3nc2-1 + Nc1ccc(C#CCN(C(=O)Cc2ncc(C(F)(F)F)cc2C(F)(F)F)c2ccc(F)cc2)nn1
92.5

Request the reported viability, T/C associated with CCc1c2c(nc3ccc(O)cc13)-c1cc3c(c(=O)n1C2)COC(=O)[C@]3(O)CC + Nc1ccc(C#CCN(C(=O)Cc2ncc(C(F)(F)F)cc2C(F)(F)F)c2ccc(F)cc2)nn1
25.9

Request the reported viability, T/C associated with CCc1c2c(nc3ccc(O)cc13)-c1cc3c(c(=O)n1C2)COC(=O)[C@]3(O)CC + Cc1cccc(N(C)C(=O)C2C(O)CCN2c2nc(C)cc(C(F)(F)F)c2C#N)c1
28.2

Request the reported viability, T/C associated with C=CCn1c(=O)c2cnc(Nc3ccc(N4CCN(C)CC4)cc3)nc2n1-c1cccc(C(C)(C)O)n1 + Nc1ccc(C#CCN(C(=O)Cc2ncc(C(F)(F)F)cc2C(F)(F)F)c2ccc(F)cc2)nn1
116

Request the reported viability, T/C associated with C=CCn1c(=O)c2cnc(Nc3ccc(N4CCN(C)CC4)cc3)nc2n1-c1cccc(C(C)(C)O)n1 + Cc1cccc(N(C)C(=O)C2C(O)CCN2c2nc(C)cc(C(F)(F)F)c2C#N)c1
89.6

Request the reported viability, T/C associated with COc1cccc(OCCCN)c1-c1cc(Nc2cnc(C#N)cn2)n[nH]1 + COC1C(OC(N)=O)C(O)C(Oc2ccc3c(O)c(NC(=O)c4ccc(O)c(CC=C(C)C)c4)c(=O)oc3c2C)OC1(C)C
88.4

Request the reported viability, T/C associated with CC[C@@]1(O)C(=O)OCc2c1cc1n(c2=O)Cc2cc3c(CN(C)C)c(O)ccc3nc2-1 + COC1C(OC(N)=O)C(O)C(Oc2ccc3c(O)c(NC(=O)c4ccc(O)c(CC=C(C)C)c4)c(=O)oc3c2C)OC1(C)C
106

Request the reported viability, T/C associated with CC[C@@]1(O)C(=O)OCc2c1cc1n(c2=O)Cc2cc3c(CN(C)C)c(O)ccc3nc2-1 + Cc1cccc(N(C)C(=O)C2C(O)CCN2c2nc(C)cc(C(F)(F)F)c2C#N)c1
98.2

---

Test system: 677734-321-R-J1-PDC complex spheroid viability
Assay: Anticancer human tumor 677734-321-R-J1-PDC cell line growth inhibition [POLQ];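 also: spheroids exposed to compounds for one week; 100% = vehicle DMSO treated spheroids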
Details: second compound 0.0316 µM; first compound 0.1 µM; active compounds read low
Provide the recorded viability, T/C for the entries that follow.
Write the answer as a number in %, unit excluded.

Request the reported viability, T/C associated with C=CCn1c(=O)c2cnc(Nc3ccc(N4CCN(C)CC4)cc3)nc2n1-c1cccc(C(C)(C)O)n1 + Cc1cccc(N(C)C(=O)C2C(O)CCN2c2nc(C)cc(C(F)(F)F)c2C#N)c1
90.6

Request the reported viability, T/C associated with CC1COCCN1c1cc(C2(O)CC3CCC(C2)O3)c2cnn(-c3ccn[nH]3)c2n1 (stereo unspecified) + Cc1cccc(N(C)C(=O)C2C(O)CCN2c2nc(C)cc(C(F)(F)F)c2C#N)c1
49

Request the reported viability, T/C associated with CCc1cc2c(N3CCc4c(cc(Cn5ccnc5)cc4-c4cn(C)nc4C(F)(F)F)C3=O)cc(C)nc2c(OC)n1 + Cc1cccc(N(C)C(=O)C2C(O)CCN2c2nc(C)cc(C(F)(F)F)c2C#N)c1
116

Request the reported viability, T/C associated with CCc1c2c(nc3ccc(O)cc13)-c1cc3c(c(=O)n1C2)COC(=O)[C@]3(O)CC + Cc1cccc(N(C)C(=O)C2C(O)CCN2c2nc(C)cc(C(F)(F)F)c2C#N)c1
2.32

Request the reported viability, T/C associated with CNCc1ccc(-c2[nH]c3cc(F)cc4c3c2CCNC4=O)cc1 + COC1C(OC(N)=O)C(O)C(Oc2ccc3c(O)c(NC(=O)c4ccc(O)c(CC=C(C)C)c4)c(=O)oc3c2C)OC1(C)C
103

Request the reported viability, T/C associated with COc1cccc(OCCCN)c1-c1cc(Nc2cnc(C#N)cn2)n[nH]1 + Nc1ccc(C#CCN(C(=O)Cc2ncc(C(F)(F)F)cc2C(F)(F)F)c2ccc(F)cc2)nn1
6.83

Request the reported viability, T/C associated with O=c1[nH]cc(F)c(=O)[nH]1 + Nc1ccc(C#CCN(C(=O)Cc2ncc(C(F)(F)F)cc2C(F)(F)F)c2ccc(F)cc2)nn1
113

Request the reported viability, T/C associated with Cn1ncnc1[C@H]1c2n[nH]c(=O)c3cc(F)cc(c23)N[C@@H]1c1ccc(F)cc1 + Cc1cccc(N(C)C(=O)C2C(O)CCN2c2nc(C)cc(C(F)(F)F)c2C#N)c1
87.3

Request the reported viability, T/C associated with C=CC(=O)N1CCN(c2nc(=O)n(-c3c(C)ccnc3C(C)C)c3nc(-c4c(O)cccc4F)c(F)cc23)C(C)C1 (stereo unspecified) + Nc1ccc(C#CCN(C(=O)Cc2ncc(C(F)(F)F)cc2C(F)(F)F)c2ccc(F)cc2)nn1
116

Request the reported viability, T/C associated with CCc1cc2c(N3CCc4c(cc(Cn5ccnc5)cc4-c4cn(C)nc4C(F)(F)F)C3=O)cc(C)nc2c(OC)n1 + COC1C(OC(N)=O)C(O)C(Oc2ccc3c(O)c(NC(=O)c4ccc(O)c(CC=C(C)C)c4)c(=O)oc3c2C)OC1(C)C
110

Request the reported viability, T/C associated with CNCc1ccc(-c2[nH]c3cc(F)cc4c3c2CCNC4=O)cc1 + Cc1cccc(N(C)C(=O)C2C(O)CCN2c2nc(C)cc(C(F)(F)F)c2C#N)c1
104
